Biological target: T1, RecE564 Q781A (Escherichia coli K12, UniProt P15032 564-866, Q781A)
T1 sequence: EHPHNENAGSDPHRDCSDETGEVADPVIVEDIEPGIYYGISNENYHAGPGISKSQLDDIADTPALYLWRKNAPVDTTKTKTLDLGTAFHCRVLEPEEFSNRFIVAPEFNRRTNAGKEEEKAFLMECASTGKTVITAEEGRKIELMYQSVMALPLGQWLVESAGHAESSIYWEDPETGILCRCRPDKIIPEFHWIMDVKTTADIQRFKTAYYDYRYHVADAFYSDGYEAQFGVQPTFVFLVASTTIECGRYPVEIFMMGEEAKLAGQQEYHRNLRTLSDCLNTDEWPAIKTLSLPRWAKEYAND
Assay: fluorescence anisotropy
recorded-metric: pKd
Scale explanation: pKd corresponds to minus log10 of a concentration expressed in moles per litre.

Query: Entry F25 (dsDNA) DNA 1: TAGAGCTTAATTGCTGAATCTGGTG DNA 2: CACCAGATTCAGCAATTAAGCTCTA : reported pKd = ?
Response: 7.15
